# key: entry, value: apparent KD of MS2 coat protein
System: MS2 coat protein
measurement.protocol: apparent KD of MS2 coat protein; designed switch direction (-1 OFF switch, 1 ON switch): -1; higher = weaker reporter binding
study.conditions: input ligand: none
All answers are understood in nM, so give the number only.

Consider the sequence shown here: UAAACCAGAGGAUAUGCGAAUAAAUAAAACUUUUUUUUUUAACAUGAGGAUCACCCAUGUAGAAGGCUGCAAUU [Ex2 #32] (Eterna round: R97, puzzle: Exclusion 2) What is its recorded apparent KD of MS2 coat protein?
30

Another sequence to check: UAUAUGUCAGGAUAUUAGUUGUGUUCGAAUUUCACUUCUGCUGAGAAGGGACAUGAGGAUCACCCAUGUUCCUC [JR_Ex4_Sub006] (Eterna round: R97, puzzle: Exclusion 4)
15.9

Another sequence to check: UCCUCACUUGAGGAUCACCCAAGUCAGGAUAUUCACUGAACUGCGUAGCAGUUCGGCCGAAGAAGGGAUUCGGG [Lacequla] (Eterna round: R97, puzzle: Exclusion 1)
107

Further cases:
Consider the sequence shown here: ACAUGAGGAUCACCCAUGUGCACGUAAUGGCUCAUGUAGAGAGAGGAUAUGUGUGACGAACGAGCACAGAAGGCUCAAGACUGG [Deportation 14 - Jieux - Exclusion NG 3] (Eterna round: R96, puzzle: Exclusion NG 3) What is its recorded apparent KD of MS2 coat protein?
179

Another sequence to check: CUCCGGCGUGUAGGAUAUGGUUCCGAUUAGGAUCCAGAAGGACAUGAGGAUCACCCAUGUACAUGUCGUCGGUCGUCACCGGGC [salish99_ExNG1_r04_211] (Eterna round: R96, puzzle: Exclusion NG 1)
29.4
